Recorded pKi values (Amine oxidase [flavin-containing] B (Rattus norvegicus, UniProt P19643)) are given below.
pKi: −log10 of the molar value.
value-kind: pKi

> print(dat)
                                    compound  quantitative.readout
 1  COc1ccc(/C=C/C(=N/Nc2nc3ccccc3c(=O)n2C)c2ccccc2)cc1                  4.98
 2  Cc1ccc(C2=NN(c3nc4ccccc4c(=O)n3C)C(c3cccs3)C2)cc1 (stereo not given)                  4.04
 3  COc1ccc(/C=C/C(=N/Nc2nc3ccccc3c(=O)n2C)c2ccccc2)cc1OC                  4.19
 4  Cn1c(N/N=C(/C=C/c2cccs2)c2ccc(Cl)cc2)nc2ccccc2c1=O                  4.16
 5  Cn1c(N2N=C(c3ccc(Cl)cc3)CC2c2ccco2)nc2ccccc2c1=O (stereo not given)                  5.03
 6  Cn1c(N2N=C(c3ccccc3)CC2c2cccc(Cl)c2)nc2ccccc2c1=O (stereo not given)                  5.24
 7  Cn1c(N2N=C(c3ccc(Cl)cc3)CC2c2cccs2)nc2ccccc2c1=O (stereo not given)                  4.59
 8  Cn1c(N2N=C(c3ccccc3)CC2c2ccccc2)nc2ccccc2c1=O (stereo not given)                  4.60
 9  CCOc1ccc(/C=C/C(=N/Nc2nc3ccccc3c(=O)n2C)c2ccccc2)cc1                  4.51
10  Cn1c(N/N=C(/C=C/c2ccco2)c2ccc(Cl)cc2)nc2ccccc2c1=O                  3.90
